FYI, the data here is from paper PMC10002828.

# measured target: SERCA2a (Sus scrofa, UniProt P11607)
# Construct: SERCA2a in native SR preparations; from tissue; host or cells: porcine left ventricular tissue (cardiac SR vesicles)
# Sequence (P11607 1-997 isoform P11607-2): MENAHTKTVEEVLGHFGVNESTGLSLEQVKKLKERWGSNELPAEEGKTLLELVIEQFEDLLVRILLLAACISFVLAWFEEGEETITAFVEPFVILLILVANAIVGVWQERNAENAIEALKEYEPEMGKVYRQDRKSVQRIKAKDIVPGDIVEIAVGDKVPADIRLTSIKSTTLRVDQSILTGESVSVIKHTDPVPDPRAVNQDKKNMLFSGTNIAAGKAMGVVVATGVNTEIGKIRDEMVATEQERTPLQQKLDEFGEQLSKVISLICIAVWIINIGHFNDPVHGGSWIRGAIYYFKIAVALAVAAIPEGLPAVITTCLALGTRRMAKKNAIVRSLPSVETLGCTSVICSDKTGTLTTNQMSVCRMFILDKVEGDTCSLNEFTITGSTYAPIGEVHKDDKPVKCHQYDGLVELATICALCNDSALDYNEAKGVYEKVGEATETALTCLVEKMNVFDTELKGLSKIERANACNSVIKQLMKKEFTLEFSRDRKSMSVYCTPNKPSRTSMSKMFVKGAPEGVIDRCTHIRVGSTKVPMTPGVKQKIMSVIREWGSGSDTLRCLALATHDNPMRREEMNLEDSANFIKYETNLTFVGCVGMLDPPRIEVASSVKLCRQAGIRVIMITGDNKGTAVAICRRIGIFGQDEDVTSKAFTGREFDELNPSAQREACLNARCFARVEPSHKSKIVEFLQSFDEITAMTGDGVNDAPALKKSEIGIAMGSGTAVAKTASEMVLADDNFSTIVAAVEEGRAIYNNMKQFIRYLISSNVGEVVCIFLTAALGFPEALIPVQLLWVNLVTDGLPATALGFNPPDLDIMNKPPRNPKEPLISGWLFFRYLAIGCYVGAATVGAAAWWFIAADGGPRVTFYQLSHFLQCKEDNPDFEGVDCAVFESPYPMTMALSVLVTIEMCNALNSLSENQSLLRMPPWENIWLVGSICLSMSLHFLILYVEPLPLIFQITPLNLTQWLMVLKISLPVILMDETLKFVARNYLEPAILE
# method notes: NADH-linked enzyme-coupled Ca2+-ATPase assay in pig cardiac SR vesicles
# Format: biochemical
# assay setup: pCa 5.4; read-out: EC50, Ca2+-ATPase at VMAX
measure name: EC50 (µM)
All answers are understood in µM, so give the number only.

Tell us which EC50 value is on record for O=C(c1ccc(-c2ccc(O)cc2)nc1)N1CCC(CCc2ccccc2)CC1 11

---

# measured target: SERCA2a (Sus scrofa)
# Construct: SERCA2a in native SR preparations; from tissue; host or cells: porcine left ventricular tissue (cardiac SR vesicles)
# method notes: NADH-linked enzyme-coupled Ca2+-ATPase assay in pig cardiac SR vesicles
# Format: biochemical
# assay setup: pCa 6.2; read-out: EC50, Ca2+-ATPase at VMID
measure name: pEC50
The read-out pEC50 is expressed as -log10 of concentration in moles per litre.

State recorded pEC50 with SERCA2a (Sus scrofa), entry O=C(c1ccc(-c2ccc(O)cc2)nc1)N1CCC(CCc2ccccc2)CC1 [Compound 6] , no comment. 4.96
